- assayTarget: P-gp (ABCB1) (Homo sapiens, UniProt P08183)
- Sequence (P08183 whole entry): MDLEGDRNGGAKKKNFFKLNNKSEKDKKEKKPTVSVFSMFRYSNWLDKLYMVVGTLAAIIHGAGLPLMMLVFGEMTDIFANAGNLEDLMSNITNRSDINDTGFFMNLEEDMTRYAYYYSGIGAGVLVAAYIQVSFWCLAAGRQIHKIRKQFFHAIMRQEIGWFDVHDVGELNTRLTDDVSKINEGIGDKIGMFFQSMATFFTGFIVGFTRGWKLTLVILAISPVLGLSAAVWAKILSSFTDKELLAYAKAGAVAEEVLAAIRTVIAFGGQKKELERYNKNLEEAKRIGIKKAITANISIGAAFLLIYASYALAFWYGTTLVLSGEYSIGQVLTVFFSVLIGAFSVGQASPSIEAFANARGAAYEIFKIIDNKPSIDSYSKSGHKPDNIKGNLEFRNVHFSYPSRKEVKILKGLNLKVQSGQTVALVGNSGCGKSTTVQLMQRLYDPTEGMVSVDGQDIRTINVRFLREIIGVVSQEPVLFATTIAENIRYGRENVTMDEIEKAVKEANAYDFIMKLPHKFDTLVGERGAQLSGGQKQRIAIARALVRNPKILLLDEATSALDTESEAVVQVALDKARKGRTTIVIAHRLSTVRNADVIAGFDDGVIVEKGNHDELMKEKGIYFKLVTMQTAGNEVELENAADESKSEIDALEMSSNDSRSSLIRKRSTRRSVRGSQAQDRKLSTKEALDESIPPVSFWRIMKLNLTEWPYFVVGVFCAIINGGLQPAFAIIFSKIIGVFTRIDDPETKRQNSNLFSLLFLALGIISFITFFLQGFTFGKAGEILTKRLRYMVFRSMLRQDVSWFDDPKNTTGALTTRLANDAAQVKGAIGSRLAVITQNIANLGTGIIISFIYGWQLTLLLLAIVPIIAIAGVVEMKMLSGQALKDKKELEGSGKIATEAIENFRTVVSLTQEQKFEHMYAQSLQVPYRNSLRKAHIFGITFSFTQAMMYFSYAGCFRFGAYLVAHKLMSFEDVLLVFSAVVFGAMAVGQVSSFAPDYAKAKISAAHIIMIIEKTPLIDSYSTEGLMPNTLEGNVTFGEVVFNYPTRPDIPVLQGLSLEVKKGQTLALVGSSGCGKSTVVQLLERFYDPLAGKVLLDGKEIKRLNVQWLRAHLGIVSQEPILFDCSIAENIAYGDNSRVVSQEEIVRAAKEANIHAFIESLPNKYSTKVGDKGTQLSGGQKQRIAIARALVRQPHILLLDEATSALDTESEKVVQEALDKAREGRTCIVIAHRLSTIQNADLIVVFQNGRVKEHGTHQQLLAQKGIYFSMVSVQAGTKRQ
- protocolNotes: Activation of human P-gp expressed in high five insect cell membrane vesicles by measuring the vanadate-sensitive ATPase activity of P-gp at 0.5 uM preincubated for 5 mins in the presence of sodium orthovanadate measured after 20 mins by colorimetric method
- conditionParameters: read-out: Activity

chemSmiles	unitsOfMeasure	readingQualifier	activity at 20 min, 0.5 µM
COc1cc(C(=O)NCc2nc(C(=O)NC3CCC(F)(F)CC3)cs2)cc(OC)c1OC	%	≤	10
COc1cc(C(=O)N[C@H](c2nc(C(=O)Nc3cccc(C(=O)c4ccccc4)c3)cs2)C(C)C)cc(OC)c1OC	%	=	143
COc1cc(C(=O)N[C@H](c2nc(C(=O)N3CCC(F)(F)CC3)cs2)C(C)C)cc(OC)c1OC	%	=	40.9
COc1cc(C(=O)N[C@H](c2nc(C(=O)NC34CC5CC(CC(C5)C3)C4)cs2)C(C)C)cc(OC)c1OC	%	≤	10

* * *

- protocolNotes: Cytotoxicity in parental HEK293-pcDNA 3.1 transfected cells assessed as cell survival at 10 uM after 72 hrs by MTT assay
- Type: cell-based
- conditionParameters: human, parental HEK293 cells transfected with pcDNA 3.1

molecule	viability at 72 h, 10 µM
COc1cc(C(=O)N[C@H](c2nc(C(=O)NC3CCC(F)(F)CC3)cs2)C(C)C)cc(OC)c1OC	> 80%
O[C@@H](COc1cccc2ncccc12)CN1CCN([C@@H]2c3ccccc3[C@@H]3[C@H](c4ccccc42)C3(F)F)CC1 [ZOSUQUIDAR]	> 80%
COc1cc(C(=O)NC(Cc2ccccc2)c2nc(C(=O)NC3CCC(F)(F)CC3)cs2)cc(OC)c1OC (stereo not drawn)	> 80%
COc1ccc(CCN(C)CCCC(C#N)(c2ccc(OC)c(OC)c2)C(C)C)cc1OC (stereo not drawn)	> 80%
COc1cc(C(=O)N[C@H](c2nc(C(=O)Nc3ccccc3C(=O)c3ccccc3)cs2)C(C)C)cc(OC)c1OC	> 80%
COc1cc(C(=O)N[C@H](c2nc(C(=O)N[C@@H]3CCCc4ccccc43)cs2)C(C)C)cc(OC)c1OC	> 80%
COc1cc(C(=O)N[C@H](c2nc(C(=O)NC3CCCCC3)cs2)C(C)C)cc(OC)c1OC	> 80%
CC(C)[C@H](NC(=O)c1cccc(N)c1)c1nc(C(=O)Nc2ccccc2C(=O)c2ccccc2)cs1	> 80%

* * *

- assayTarget: P-gp (ABCB1) (Homo sapiens, UniProt P08183)
- protocolNotes: Activation of human P-gp expressed in high five insect cell membrane vesicles by measuring the vanadate-sensitive ATPase activity of P-gp at 0.5 uM preincubated for 5 mins in the presence of sodium orthovanadate measured after 20 mins by colorimetric method
- conditionParameters: read-out: Activity

molecule	activity at 20 min, 0.5 µM
CC(C)[C@H](NC(=O)C1CCC(F)(F)CC1)c1nc(C(=O)NC2CCC(F)(F)CC2)cs1	≤ 10%
COc1cc(C(=O)N[C@H](c2nc(C(=O)Nc3ccc(F)cc3)cs2)C(C)C)cc(OC)c1OC	59.5%
COc1cc(C(=S)N[C@H](c2nc(C(=S)NC3CCCCC3)cs2)C(C)C)cc(OC)c1OC	65%
COc1cc(C(=O)N2CCCC2c2nc(C(=O)NC3CCC(F)(F)CC3)cs2)cc(OC)c1OC (configuration not stated)	≤ 10%
COc1cc(C(=O)N[C@H](c2nc(C(=O)NC3CCNCC3)cs2)C(C)C)cc(OC)c1OC	46.3%
CC(C)[C@H](NC(=O)c1ccccc1N=[N+]=[N-])c1nc(C(=O)Nc2ccccc2C(=O)c2ccccc2)cs1	142%
COc1cc(C(=O)N[C@H](c2nc(C(=O)NC3CCCC3)cs2)C(C)C)cc(OC)c1OC	≤ 10%
COc1cc(C(=O)N[C@H](c2nc(C(=O)NC3CCS(=O)(=O)CC3)cs2)C(C)C)cc(OC)c1OC	≤ 10%
COc1cc(C(=O)N[C@H](c2nc(C(=O)Nc3ccccc3C(=O)c3ccc(N=[N+]=[N-])cc3)cs2)C(C)C)cc(OC)c1OC	148%
COc1cc(C(=O)N[C@H](c2nc(C(=O)NCC3CCNCC3)cs2)C(C)C)cc(OC)c1OC	23%
COc1cc(C(=O)N[C@H](c2nc(C(=S)NC3CCCCC3)cs2)C(C)C)cc(OC)c1OC	≤ 10%
COc1cc(C(=O)N[C@H](c2nc(C(=O)Nc3ccccc3Oc3ccccc3)cs2)C(C)C)cc(OC)c1OC	88%
COc1cc(C(=O)N[C@H](c2nc(C(=O)Nc3ccccc3NC(=O)c3ccccc3)cs2)C(C)C)cc(OC)c1OC	52%
CC(C)[C@H](NC(=O)c1cccc(N)c1)c1nc(C(=O)Nc2ccccc2C(=O)c2ccccc2)cs1	308%
COc1cc(C(=O)N[C@H](c2nc(C(=O)N3CCC(=O)CC3)cs2)C(C)C)cc(OC)c1OC	≤ 10%
COc1cc(C(=O)NC(c2nc(C(=O)NCC3CCC(N)CC3)cs2)C(C)C)cc(OC)c1OC (configuration not stated)	≤ 10%
COc1cc(C(=O)N[C@H](c2nc(C(=O)N[C@H]3CCCc4ccccc43)cs2)C(C)C)cc(OC)c1OC	108%

* * *

- assayTarget: P-gp (ABCB1) (Homo sapiens, UniProt P08183)
- protocolNotes: Activation of human P-gp expressed in high five insect cell membrane vesicles by measuring the vanadate-sensitive ATPase activity of P-gp at 0.5 uM preincubated for 5 mins in the presence of sodium orthovanadate measured after 20 mins by colorimetric method
- conditionParameters: read-out: Activity
One threshold, 40%, splits the recorded activity at 20 min, 0.5 µM values: lower ones are y, equal or higher ones are n.

molecule	discreteLabel
COc1cc(C(=S)N[C@H](c2nc(C(=S)NC3CCC(F)(F)CC3)cs2)C(C)C)cc(OC)c1OC	y
COc1cc(C(=O)N[C@H](c2nc(C(=O)NCCCC(F)(F)F)cs2)C(C)C)cc(OC)c1OC	y
COc1cc(C(=O)N[C@H](c2nc(C(=O)Nc3ccccc3C(=O)c3ccccc3)cs2)C(C)C)cc(OC)c1OC	n
COc1cc(C(=O)N[C@H](c2nc(C(=O)N3CCC(C(F)(F)F)CC3)cs2)C(C)C)cc(OC)c1OC	y
COc1cc(C(=O)N[C@H](c2nc(C(=O)N3CCC(N4CCCCC4)CC3)cs2)C(C)C)cc(OC)c1OC	y
COc1cc(C(=O)Nc2nc(C(=O)NC3CCC(F)(F)CC3)cs2)cc(OC)c1OC	n
COc1cc(C(=O)N[C@H](c2nc(C(=O)NC3CCN(Cc4ccccc4)CC3)cs2)C(C)C)cc(OC)c1OC	n
COc1cc(C(=O)N[C@H](c2nc(C(=O)N(C3CCCCC3)C3CCCCC3)cs2)C(C)C)cc(OC)c1OC	n
COc1cc(C(=O)N[C@H](c2nc(C(=O)Nc3cc(F)c(F)c(F)c3)cs2)C(C)C)cc(OC)c1OC	n
COc1cc(C(=O)N[C@H](c2nc(C(=O)NC3CCC(C)(C)CC3)cs2)C(C)C)cc(OC)c1OC	y
COc1cc(C(=O)NC(c2nc(C(=O)NC3CCC(C(F)(F)F)CC3)cs2)C(C)C)cc(OC)c1OC (stereo not given)	y
COc1cc(C(=O)N[C@H](c2nc(C(=O)NC3CCOCC3)cs2)C(C)C)cc(OC)c1OC	y
CC(C)[C@H](NC(=O)c1ccc(N=[N+]=[N-])cc1)c1nc(C(=O)Nc2ccccc2C(=O)c2ccc(Br)cc2)cs1	n
COc1cc(C(=O)N[C@H](c2nc(C(=O)NC3CCN(C(=O)OC(C)(C)C)CC3)cs2)C(C)C)cc(OC)c1OC	n
COc1cc(C(=O)N[C@H](c2nc(C(=O)Nc3ccccc3C(=O)c3ccc(Br)cc3)cs2)C(C)C)cc(OC)c1OC	n

* * *

# inhibition at 50 µM listing for each entry below
- assayTarget: UniProtKB P08684
- Sequence (P08684 whole entry): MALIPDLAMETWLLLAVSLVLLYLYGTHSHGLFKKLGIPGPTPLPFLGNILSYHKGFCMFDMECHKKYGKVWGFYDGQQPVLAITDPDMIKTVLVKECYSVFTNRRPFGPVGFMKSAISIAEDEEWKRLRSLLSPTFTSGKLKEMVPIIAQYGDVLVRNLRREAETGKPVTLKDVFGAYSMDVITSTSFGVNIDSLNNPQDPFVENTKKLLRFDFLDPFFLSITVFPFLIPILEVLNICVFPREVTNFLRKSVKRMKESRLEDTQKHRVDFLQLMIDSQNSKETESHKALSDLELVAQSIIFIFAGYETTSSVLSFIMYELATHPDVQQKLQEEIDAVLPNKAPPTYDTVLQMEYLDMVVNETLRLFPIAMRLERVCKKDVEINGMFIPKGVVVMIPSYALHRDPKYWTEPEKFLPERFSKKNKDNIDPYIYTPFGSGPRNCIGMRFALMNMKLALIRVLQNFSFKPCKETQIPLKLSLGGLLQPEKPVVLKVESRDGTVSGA
- protocolNotes: Inhibition of CYP3A4 (unknown origin) at 50 uM by fluorescence based-vivid CYP450 green screening kit based assay
- Format: ADME

molecule	assayTarget	inhibition at 50 µM / %
COc1cc(C(=O)NC(Cc2ccccc2)c2nc(C(=O)NC3CCC(F)(F)CC3)cs2)cc(OC)c1OC (centres undefined)	UniProtKB P08684	32.9
COc1cc(C(=O)N[C@H](c2nc(C(=O)NC3CCC(F)(F)CC3)cs2)C(C)C)cc(OC)c1OC	UniProtKB P08684	28.7
COc1cc(C(=O)N[C@H](c2nc(C(=O)NC3CCCCC3)cs2)C(C)C)cc(OC)c1OC	UniProtKB P08684	52
CC(C)[C@H](NC(=O)c1cccc(N)c1)c1nc(C(=O)Nc2ccccc2C(=O)c2ccccc2)cs1	UniProtKB P08684	83.3

* * *

- assayTarget: P-gp (ABCB1) (Homo sapiens, UniProt P08183)
- protocolNotes: Activation of human P-gp expressed in high five insect cell membrane vesicles by measuring the vanadate-sensitive ATPase activity of P-gp at 2.5 uM preincubated for 5 mins in the presence of sodium orthovanadate measured after 20 mins by colorimetric method
- conditionParameters: read-out: Activity
Cut-off 80% on activity at 20 min, 2.5 µM, inclusive. At or above means criterion met; below means criterion not met.

molecule	discreteLabel
COc1cc(CC(=O)N[C@H](c2nc(C(=O)NC3CCC(F)(F)CC3)cs2)C(C)C)cc(OC)c1OC	criterion not met
CC(C)[C@H](NC(=O)c1ccccc1N=[N+]=[N-])c1nc(C(=O)Nc2ccccc2C(=O)c2ccccc2)cs1	criterion met
COc1cc(C(=O)N[C@H](c2nc(C(=O)NC3CCNCC3)cs2)C(C)C)cc(OC)c1OC	criterion not met
CC(C)[C@H](N)c1nc(C(=O)NC2CCC(F)(F)CC2)cs1	criterion not met
COc1ccc(C(=O)N[C@H](c2nc(C(=O)NC3CCC(F)(F)CC3)cs2)C(C)C)cc1	criterion not met
COc1cc(C(=O)NC(CC(C)C)c2nc(C(=O)NC3CCC(F)(F)CC3)cs2)cc(OC)c1OC (centres undefined)	criterion not met
COc1cc(C(=S)N[C@H](c2nc(C(=S)NC3CCCCC3)cs2)C(C)C)cc(OC)c1OC	criterion met
COc1cc(C(=O)N[C@H](c2nc(C(=O)NCC3CCNCC3)cs2)C(C)C)cc(OC)c1OC	criterion not met
COc1cc(C(=O)N[C@H](c2nc(C(=O)NC3CCC(=O)CC3)cs2)C(C)C)cc(OC)c1OC	criterion not met
COc1cc(C(=O)N[C@H](c2nc(C(=O)NC3CCCC3)cs2)C(C)C)cc(OC)c1OC	criterion not met
COc1cc(C(=O)N[C@H](c2nc(C(=O)NC3CCN(Cc4ccccc4)CC3)cs2)C(C)C)cc(OC)c1OC	criterion met
COc1cc(C(=O)C(=O)N[C@H](c2nc(C(=O)NC3CCC(F)(F)CC3)cs2)C(C)C)cc(OC)c1OC	criterion met
CC(C)[C@H](NC(=O)c1ccc(N=[N+]=[N-])cc1)c1nc(C(=O)Nc2ccccc2C(=O)c2ccc(Br)cc2)cs1	criterion met
COc1cc(C(=O)N[C@H](c2nc(C(=O)NCC3CCC(F)(F)CC3)cs2)C(C)C)cc(OC)c1OC	criterion not met
CC(C)[C@H](NC(=O)c1cncnc1)c1nc(C(=O)NC2CCC(F)(F)CC2)cs1	criterion not met
COc1cc(C(=O)N[C@H](c2nc(C(=O)NC3CCC(C)(C)CC3)cs2)C(C)C)cc(OC)c1OC	criterion not met
COc1cc(C(=O)N[C@H](c2nc(C(=O)NC3CCN(c4ncccn4)CC3)cs2)C(C)C)cc(OC)c1OC	criterion met
COc1cc(C(=O)N2CCCC2c2nc(C(=O)NC3CCC(F)(F)CC3)cs2)cc(OC)c1OC (centres undefined)	criterion not met
CC(C)[C@H](NC(=O)c1cscn1)c1nc(C(=O)NC2CCC(F)(F)CC2)cs1	criterion not met
COc1cc(C(=O)N[C@H](c2nc(C(=S)NC3CCCCC3)cs2)C(C)C)cc(OC)c1OC	criterion not met
CC(C)[C@H](NC(=O)c1cccc(N=[N+]=[N-])c1)c1nc(C(=O)Nc2ccccc2C(=O)c2ccccc2)cs1	criterion met
COc1cc(C(=O)NC(c2nc(C(=O)NCC3CCC(N)CC3)cs2)C(C)C)cc(OC)c1OC (centres undefined)	criterion not met
COc1cc(C(=S)N[C@H](c2nc(C(=S)NC3CCC(F)(F)CC3)cs2)C(C)C)cc(OC)c1OC	criterion not met
CC(C)[C@H](NC(=O)c1ccc(N=[N+]=[N-])cc1)c1nc(C(=O)Nc2ccccc2C(=O)c2ccccc2)cs1	criterion met
COc1cc(C(=O)N[C@H](c2nc(C(=O)N3CCC(C(F)(F)F)CC3)cs2)C(C)C)cc(OC)c1OC	criterion not met
COc1cc(C(=O)N[C@H](c2nc(C(=O)N[C@H]3CCCc4ccccc43)cs2)C(C)C)cc(OC)c1OC	criterion met
CC(C)[C@H](NC(=O)c1cnc2ccccc2c1)c1nc(C(=O)NC2CCC(F)(F)CC2)cs1	criterion met
COc1cc(C(=O)N[C@H](c2nc(C(=O)NC3CCOCC3)cs2)C(C)C)cc(OC)c1OC	criterion not met
COc1cc(C(=O)N[C@H](c2nc(C(=O)N3CCC(F)(F)CC3)cs2)C(C)C)cc(OC)c1OC	criterion not met
CC(C)[C@H](NC(=O)c1ccccc1)c1nc(C(=O)NC2CCC(F)(F)CC2)cs1	criterion not met
COc1cc(C(=O)N[C@H](c2nc(C(=O)NC3CCS(=O)(=O)CC3)cs2)C(C)C)cc(OC)c1OC	criterion not met
CC(C)[C@H](NC(=O)C1CCOCC1)c1nc(C(=O)NC2CCC(F)(F)CC2)cs1	criterion not met
COc1cc(C(=O)N[C@H](c2nc(C(=O)N(C3CCCCC3)C3CCCCC3)cs2)C(C)C)cc(OC)c1OC	criterion met
COc1cc(C(=O)N[C@H](c2nc(C(=O)N[C@@H]3CCCc4ccccc43)cs2)C(C)C)cc(OC)c1OC	criterion not met
